biological target: Cytochrome P450 2C19 (Homo sapiens, UniProt P33261); assay: Cytochrome panel assay with activity outcomes. Panel member name: p450-cyp2c19 Compounds with AC50 equal or less than 10 uM are considered active; format: functional; details: read-out: AC50
Sequence (P33261 whole entry): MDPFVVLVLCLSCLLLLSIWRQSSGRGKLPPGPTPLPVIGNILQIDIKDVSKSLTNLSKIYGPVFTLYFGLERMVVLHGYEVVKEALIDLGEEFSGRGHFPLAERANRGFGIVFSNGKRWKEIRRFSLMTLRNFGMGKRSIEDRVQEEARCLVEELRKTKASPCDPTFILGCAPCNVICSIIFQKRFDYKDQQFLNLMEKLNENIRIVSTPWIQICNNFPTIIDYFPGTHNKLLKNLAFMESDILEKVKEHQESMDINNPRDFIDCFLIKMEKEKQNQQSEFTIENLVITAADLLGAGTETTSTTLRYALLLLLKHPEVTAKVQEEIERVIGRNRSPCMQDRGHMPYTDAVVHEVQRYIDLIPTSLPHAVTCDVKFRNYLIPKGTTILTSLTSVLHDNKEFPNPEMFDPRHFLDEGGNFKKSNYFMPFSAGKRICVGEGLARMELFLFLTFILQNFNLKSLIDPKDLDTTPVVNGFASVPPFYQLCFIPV
quantity_measured: AC50

For orientation, consider the following solved cases.
Problem: Report measured AC50 on Cytochrome P450 2C19 (Homo sapiens, UniProt P33261); entry: Cc1sc2ncn(CC(=O)NCCCC(=O)N3CCN(c4ncccn4)CC3)c(=O)c2c1C
Result: 25.1 µM (inconclusive)

Problem: Report measured AC50 on Cytochrome P450 2C19 (Homo sapiens, UniProt P33261); entry: O=C(NC(Cc1c[nH]c2ccccc12)c1nnc2n1CCCCC2)c1ccccc1 (stereo unspecified)
Result: 17.8 µM (inconclusive)

Problem: Report measured AC50 on Cytochrome P450 2C19 (Homo sapiens, UniProt P33261); entry: O=c1cnc2cnc(OCc3ccccc3)nc2n1Cc1ccc(F)cc1
Result: 25.1 µM (inconclusive)

Problem: Report measured AC50 on Cytochrome P450 2C19 (Homo sapiens, UniProt P33261); entry: Cc1ccc(S(=O)(=O)O/N=C2/CCCc3occc32)cc1
Result: 35.5 µM (inconclusive)

Problem: Report measured AC50 on Cytochrome P450 2C19 (Homo sapiens, UniProt P33261); entry: Cc1c(Cl)cccc1Nc1ccccc1C(=O)O [TOLFENAMIC ACID]
Result: 15.8 µM (inconclusive)

Problem: Report measured AC50 on Cytochrome P450 2C19 (Homo sapiens, UniProt P33261); entry: Fc1cccc(Cl)c1CSc1nc[nH]n1
Result: 39.8 µM (inconclusive)

New cases:
Problem: Report measured AC50 on Cytochrome P450 2C19 (Homo sapiens, UniProt P33261); entry: O=C(NC1CCCCCC1)c1cccs1
Result: 3.98 µM (inconclusive)

Problem: Report measured AC50 on Cytochrome P450 2C19 (Homo sapiens, UniProt P33261); entry: COc1ccc(C)cc1NC(=O)CSc1nnc(-c2ccc(OC)c(OC)c2)n1N
Result: 28.2 µM (inconclusive)

Problem: Report measured AC50 on Cytochrome P450 2C19 (Homo sapiens, UniProt P33261); entry: Cc1ccc(-n2ncc3c2ncn2nc(-c4ccco4)nc32)c(C)c1
Result: 17.8 µM (inconclusive)

Problem: Report measured AC50 on Cytochrome P450 2C19 (Homo sapiens, UniProt P33261); entry: CN(C)C(=O)c1ccc(-c2nc(N(C)Cc3ccco3)c3ccccc3n2)cc1
Result: 31.6 µM (inconclusive)

Problem: Report measured AC50 on Cytochrome P450 2C19 (Homo sapiens, UniProt P33261); entry: O=C(Oc1ccccc1)N1CCC2(CC1)CN(c1ccccc1)C2
Result: 15.8 µM (inconclusive)
